This section presents compounds with their documented TGI values.
- Test system: OVCAR-3 ovarian
- assayProtocol: NCI tumour cell line growth inhibition, 48 h
Quick note: give the figure in µM, leave out the unit.

Reference set (3 entries):
compound=CCC/C(Cl)=N\OC(=O)Nc1ccc(F)c([N+](=O)[O-])c1 assayvalue=28.9
compound=O=C(Cn1c(=O)oc2ccc(C(=O)c3ccccc3Cl)cc21)c1ccc([N+](=O)[O-])cc1 assayvalue=59.4
compound=COc1cc([C@@H]2c3cc4c(cc3[C@@H](N=Cc3ccc(C(=O)O[C@@H](C(=O)O[C@H]5C[C@@]6(O)[C@@H](OC(=O)c7ccccc7)[C@@H]7[C@]8(OC(C)=O)CO[C@@H]8C[C@H](O)[C@@]7(C)C(=O)[C@H](OC(C)=O)C(=C5C)C6(C)C)[C@@H](NC(=O)c5ccccc5)c5ccccc5)cc3)[C@H]3COC(=O)[C@H]23)OCO4)cc(OC)c1O assayvalue=0.164

**Q:** Form field: TGI recorded for "CCCCCC(O)(CCCCC)CCCCCCCCC1=C(O)c2ccccc2C(=O)C1=O" with OVCAR-3 ovarian (enter value)
**A:** 29.4

**Q:** Form field: TGI recorded for "COc1cc(/C=c2/c3ccccc3n3c2cc(-c2ccccc2)[n+]3C)cc(OC)c1OC" with OVCAR-3 ovarian (enter value)
**A:** 6.82

**Q:** Form field: TGI recorded for "CN[C@@H]1C[C@H]2O[C@@](C)([C@@H]1OC)n1c3ccccc3c3c4c(c5c6ccccc6n2c5c31)C(=O)N[C@H]4O" with OVCAR-3 ovarian (enter value)
**A:** 1.99

**Q:** Form field: TGI recorded for COc1ccc(N2C(N)=C(C#N)C(C#N)(C#N)C2c2cccc([N+](=O)[O-])c2)cc1 (stereo not given) with OVCAR-3 ovarian (enter value)
**A:** 30.1

**Q:** Form field: TGI recorded for "CSC1(SC)N2Cc3ccccc3N=C2C1(c1ccccc1)c1ccccc1" with OVCAR-3 ovarian (enter value)
**A:** 28.3

# credit: PubChem BioAssay (NCI)
